Please go through the items and note down their growth.
Test system: SF-539 CNS
Assay: NCI-60 one-dose screen, 48 h (100 = growth as untreated, 0 = no growth, -100 = all killed)
Conditions: 10 µM unless noted
This is part of a sample that, as a whole, favours compounds with a hit. Of some 83,000 tested, about 20% had one in any assay.
Respond numerically; units are % and should not be typed.

According to the records, this molecule CC(C)(C)[Si](C)(C)OC1[C@@H](O[Si](C)(C)C(C)(C)C)[C@@H](CNC(=O)NC(=O)CF)O[C@H]1n1cnc2c(NC(=O)Nc3ccccc3)ncnc21 (some centres not stated) displays growth of 92.6

According to the records, this molecule `Oc1ccc(Br)cc1CN1CCN(Cc2ccc(Cl)cc2)CC1` displays growth of 92.9

According to the records, this molecule `O=C(/C=C/c1ccccc1)N[C@@H](CO)Cc1cnc[nH]1` displays growth of 95.6

According to the records, this molecule CC1([N+](=O)[O-])COP(=O)(Nc2ccc(F)cc2)OC1 (configuration not stated) displays growth of 103

According to the records, this molecule `CNC(=O)Oc1cc(C(C)C)ccc1Sc1ccc(C(C)C)cc1OC(=O)NC` displays growth of 56.8

According to the records, this molecule CCC(C)/C=C(C)/C=C/C(=O)c1c(O)c(-c2ccc(O)cc2)c[nH]c1=O (configuration not stated) displays growth of 61.7

According to the records, this molecule `Cc1cc(C)nc(C)c1.[Cl][Hg][Cl]` displays growth of 103

According to the records, this molecule `CN1CC2CCC(C1)C2=O` displays growth of 105

According to the records, this molecule `COc1cc(C2(C#N)CCN(C)CC2)cc(OC)c1OC` displays growth of 111

According to the records, this molecule `O=C1NC2(CCNCC2)Nc2ccccc21` displays growth of 114

According to the records, this molecule `CCOC(=O)/C(C#N)=C/c1ccc(N(CCCl)CCCl)cc1` displays growth of 84.9

According to the records, this molecule c1ccc([As]=[As]c2ccccc2)cc1 (configuration not stated) displays growth of -66.8

According to the records, this molecule `CC(C)[C@]12O[C@H]1[C@@H]1O[C@]13[C@]1(O[C@H]1C[C@H]1C4=C(CC[C@@]13C)C(=O)OC4)[C@@H]2OC(=O)OC(C)(C)C` displays growth of -20.2

According to the records, this molecule `CCOc1cc(C=C(C#N)C#N)cc(Br)c1O` displays growth of 99.5

According to the records, this molecule OC1(c2ccc(Cl)cc2Cl)c2ccccc2C2=NCCN21 (configuration not stated) displays growth of 102

According to the records, this molecule `COC(C)(C)CCC[C@H](C)C/C=C/C(C)=C/C(=O)OC(C)C` displays growth of 118

According to the records, this molecule `CC(C)(C)N(Cc1ccccc1)N=O` displays growth of 99

====

Test system: PC-3 prostate
Test: NCI-60 one-dose screen, 48 h
Details: 10 µM unless noted
About 83,000 compounds went through this panel and 20% of them were active in at least one assay; those are over-represented in the sample as a whole. Active and inactive are the calls of the source. The calls were made as follows: active = growth percent below 10; inactive = the rest.
Mark one answer only. Choices: 1 (yes) = active, 0 (no) = inactive

QUERY: For `CC1(C)N=C(N)N=C(N)N1c1ccc(CCCCc2ccc(S(=O)(=O)F)cc2)c(Cl)c1` , which call appears in the assay record?
RESULT: 1 (yes)

QUERY: For c1ccc([As]=[As]c2ccccc2)cc1 (stereo not drawn) , which call appears in the assay record?
RESULT: 1 (yes)

QUERY: For NC(=O)C(Br)CBr (stereo not drawn) , which call appears in the assay record?
RESULT: 0 (no)

QUERY: For `CC(C)(NC(=O)c1nn(CCCCCF)c2ccccc12)c1ccccc1` , which call appears in the assay record?
RESULT: 0 (no)

QUERY: For `O=[N+]([O-])c1ccc2cnn(CSP(=S)(c3ccccc3)c3ccccc3)c2c1` , which call appears in the assay record?
RESULT: 0 (no)

QUERY: For `Cc1cccc(N=C2c3cc([N+](=O)[O-])ccc3-c3c2cc([N+](=O)[O-])cc3[N+](=O)[O-])c1` , which call appears in the assay record?
RESULT: 0 (no)

QUERY: For `O=C1NC(=S)NC(=O)C1=Cc1ccccc1` , which call appears in the assay record?
RESULT: 0 (no)

QUERY: For CC1CC=CCC12C(=O)NC(=S)NC2=O (stereo not drawn) , which call appears in the assay record?
RESULT: 0 (no)

QUERY: For CC(=O)O[C@H]1CCC2(C)C(=CCC3C2CCC2(C)/C(=N/OC(=O)c4ccc(N(CCCl)CCCl)cc4)CCC32)C1 (stereo partly drawn) , which call appears in the assay record?
RESULT: 0 (no)

QUERY: For `Nc1c(Br)cc([N+](=O)[O-])cc1[N+](=O)[O-]` , which call appears in the assay record?
RESULT: 0 (no)

QUERY: For `N#CC(C#N)=Cc1ccc2ccccc2c1` , which call appears in the assay record?
RESULT: 0 (no)

QUERY: For `O=C(O)c1cccc(CCl)c1` , which call appears in the assay record?
RESULT: 0 (no)

QUERY: For `CC1(C)N=C(N)N=C(N)N1c1ccc(OCCCCNC(=O)Nc2cccc(S(=O)(=O)F)c2)c(Cl)c1` , which call appears in the assay record?
RESULT: 1 (yes)

QUERY: For CC1([N+](=O)[O-])COP(=O)(Nc2ccc(F)cc2)OC1 (stereo not drawn) , which call appears in the assay record?
RESULT: 0 (no)

QUERY: For COc1ccc(C(=O)c2ccc([As]=O)cc2)cc1 (stereo not drawn) , which call appears in the assay record?
RESULT: 1 (yes)

QUERY: For Nc1ncnc2c1c(C(=O)NO)cn2C1OC(CO)C(O)C1O (stereo not drawn) , which call appears in the assay record?
RESULT: 1 (yes)

QUERY: For CC12CCC(=O)C=C1C(O)CC1C2CCC2(C)C(O)CCC12 (stereo not drawn) , which call appears in the assay record?
RESULT: 0 (no)

QUERY: For `N#[N+]c1cnc([O-])[nH]c1=O` , which call appears in the assay record?
RESULT: 0 (no)

QUERY: For `NC(=O)C(Cl)Cl` , which call appears in the assay record?
RESULT: 0 (no)

QUERY: For `CC(C)Nc1ccc(Nc2ccccc2)cc1` , which call appears in the assay record?
RESULT: 1 (yes)

QUERY: For `CCOC(=O)Nc1cc(Cl)c([N+](=O)[O-])c(NC(=O)OCC)n1` , which call appears in the assay record?
RESULT: 0 (no)

QUERY: For CC(CC(C#N)(c1ccccc1)c1ccccc1)N1CCOCC1 (stereo not drawn) , which call appears in the assay record?
RESULT: 0 (no)

QUERY: For `CC(/C=N/N=C(N)N)=N\N=C(N)N` , which call appears in the assay record?
RESULT: 0 (no)
